# Tested on: BT-16 cells
# Assay type: cell-based
# applied-conditions: BT-16, read-out: MTT: IC50 of the proliferation assay
pIC50: −log10 of the molar value.
pIC50 values for the molecules below.

>  <record-smiles>
COc1ccc2c(c1)/C(=C\c1ccc3c(/C=C/c4ccc(N5CCN(C)CC5)nc4)n[nH]c3c1)C(=O)N2

>  <inequality-symbol>
=

>  <pIC50>
5.72

$$$$
>  <record-smiles>
O=C(c1ccc(/C=C/c2n[nH]c3ccccc23)cc1)N1CCNCC1

>  <inequality-symbol>
<

>  <pIC50>
5.00

$$$$
>  <record-smiles>
COc1c(Nc2cc(C)[nH]n2)nc(Sc2ccc(S(=O)(=O)Cc3cccc([N+](=O)[O-])c3F)cc2F)nc1N1CCCCC1

>  <inequality-symbol>
=

>  <pIC50>
5.26

$$$$
>  <record-smiles>
COc1cc2c(cc1F)C(c1ccccc1Cl)=Nc1c(n[nH]c1C)N2

>  <inequality-symbol>
=

>  <pIC50>
5.41

$$$$
